# Test system: MCC-13
# procedure.text: qHTS assay to identify novel small-molecules to repurpose for Merkel cell carcinoma treatment (AID 1296009); also: nearly all actives have a fitted effect of over 60% in size
# particulars: MCC and control cell lines, CellTiter-Glo viability, 72 h; series mostly up to 46 µM
Inconclusive results are not listed. Calls of active or inactive are those of the source. Calls follow the shape of the dose curve; as a rule, active = well fitted inhibition curve with a large enough effect; inconclusive = small, poorly fitted or top-dose-only effect; inactive = flat fitted curve, though single readings scatter.
Classes used: active, inactive

compound	group
CC(C)C(C)(C)C(C)(C)C(C)(C)S	inactive
CCCCCCn1c(=O)c2c(ncn2C)n(C)c1=O	inactive
CCCCN(CCN(CCCC)C(=O)N1CCOCC1)C(=O)N1CCOCC1	inactive
Fc1ccc(C(c2ccc(F)cc2)N2CCNCC2)cc1	inactive
NS(=O)(=O)c1cc(C(=O)NN2C[C@H]3[C@H]4CCC(C4)[C@H]3C2)ccc1Cl	inactive
CC(C)CCCC(C)NCCC(C)C (centres undefined)	inactive
CO[C@@H]1[C@@H](OC)[C@H](C)[C@@](O)(CC(=O)O)O[C@H]1[C@H](C)[C@H]1O[C@@]2(CC[C@@](C)([C@H]3CC[C@@](C)([C@@H]4O[C@@H]([C@H]5O[C@](C)(O)[C@H](C)C[C@@H]5C)C[C@@H]4OC4C[C@H](OC)[C@@H](OC)[C@H](C)O4)O3)O2)C[C@H](O)[C@H]1C (some centres undefined)	active
CCN(CC)C(=O)C1CN2CCc3cc(OC)c(OC)cc3C2CC1OC(C)=O (centres undefined)	inactive
CC(=O)c1ccc(O)c(C(N)=O)c1	inactive

###

# procedure.text: Cellular Toxicity (caspase-3) Jurkat (AID 655);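 also: cells exposed to compound for 16 h at 37 °C before reading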
# particulars: Jurkat caspase-3 activation, luminescence; series mostly up to 92.2 µM
Results filed as inconclusive are left out. Activity calls are given as the source filed them. Calls follow the shape of the dose curve; as a rule, active = well fitted activation curve with a large enough effect; inconclusive = small, poorly fitted or top-dose-only effect; inactive = flat fitted curve, though single readings scatter.
Labels: yes (1) (active), no (0) (inactive)

1) Nc1ccc(O)cc1 no (0)
2) Nc1c2ccccc2nc2ccccc12 yes (1)
3) CC(C)C(C)(C)C(C)(C)C(C)(C)S no (0)
4) Nc1cccc2c(N)cccc12 no (0)
5) c1ccc2occc2c1 no (0)
6) CC(=O)OC/C=C(C)/C=C/C=C(C)/C=C/C1=C(C)CCCC1(C)C no (0)
7) O=C(Oc1ccccc1)c1ccccc1O no (0)
8) O=C(NO)c1ccccc1 no (0)
9) CCCC(=O)c1cc(O)c(O)cc1O no (0)
10) COc1cc(C=O)ccc1O no (0)
11) Oc1ccccc1 no (0)
12) CC(C)(c1ccc(O)cc1)c1ccc(O)cc1 no (0)
13) Cc1cc(C(C)(C)C)c(O)c(C(C)(C)C)c1 no (0)

###

# Tested on: ATS95
# procedure.text: qHTS profiling for inhibitors of Plasmodium falciparum proliferation (AID 504749); also: nearly all actives have a fitted effect of over 60% in size
# particulars: P. falciparum in erythrocytes, SYBR Green DNA, 72 h; series mostly up to 28.7 µM
Records with an inconclusive call do not appear. Activity calls are given as the source filed them. Calls come from the whole dose curve; as a rule, active = well fitted inhibition curve with a large enough effect; inconclusive = small, poorly fitted or top-dose-only effect; inactive = flat fitted curve, though single readings scatter.
Labels: active, inactive

compound	experimental.target	group
CCCCCCCCCCCCCC[N+](C)(C)C	ATS95	active
CCCCCCCCCCCCCCCC[N+](C)(C)Cc1ccccc1	ATS95	active
O=S(=O)(O)c1ccc2nc(-c3ccccc3)[nH]c2c1	ATS95	inactive
CN1CCCN(C(c2ccccc2)c2ccc(Cl)cc2)CC1 (stereo not given)	ATS95	active
CC(NCCC(c1ccccc1)c1ccccc1)c1ccccc1 (stereo not given)	ATS95	active
